experimental target: Gal(a1-3)Gal(b1-4)GlcNAc(b1-6)GalNAc
test summary: glycan array binding signal (z-score within array); higher = stronger binding
condition: glycan notation: IUPAC condensed, linker removed
This excerpt belongs to a sample that is enriched for the strongest signals.
Listing of entries alongside the reported glycan array binding signal (z-score).

{"binder": "Pbx2CASH domain (Cryptococcus neoformans) (protein) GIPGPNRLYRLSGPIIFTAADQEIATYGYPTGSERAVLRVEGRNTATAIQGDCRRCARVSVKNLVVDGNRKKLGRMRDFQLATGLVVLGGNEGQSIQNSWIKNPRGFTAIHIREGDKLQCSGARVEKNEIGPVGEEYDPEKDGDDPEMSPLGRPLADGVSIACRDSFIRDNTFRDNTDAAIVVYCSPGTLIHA", "glycan array binding signal (z-score)": -0.025}
{"binder": "SJCP3842 (Schistosoma japonicum) (protein) MFKMRIINLVNISTVLLLINLLQTKSRLVGKENGFMLTVSIYGAQLSDKMTSVPVSWTIDYEDPEKSAFKKLVTDSCDTFSEYVKSQIPKGSVDGQCTSHIFQRPGSGSGVSISLTLSFIYVDVTQPDTVALKTELEKHFANFVTIHSHKITQAQFRINQKAIVIPTGDKDAIDGSKWKIIAIIALVALAIVVIGGFIYICVK", "glycan array binding signal (z-score)": -0.327}
{"binder": "HBHA-Rv (Mycobacterium tuberculosum), P0A5P6 (protein) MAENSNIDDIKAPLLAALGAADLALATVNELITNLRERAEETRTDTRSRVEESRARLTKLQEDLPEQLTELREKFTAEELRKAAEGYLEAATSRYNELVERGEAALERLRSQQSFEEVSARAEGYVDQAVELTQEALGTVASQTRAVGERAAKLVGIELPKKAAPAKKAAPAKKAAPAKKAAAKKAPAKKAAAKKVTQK", "glycan array binding signal (z-score)": 0.154}
{"binder": "Pwp6 (Candida glabrata) (protein) MGSSHHHHHHSSGLVPRGSHMASANLPKLTNICQIPDNVKKTSGFKGEIRRIGLFPPGGDYTYLLKFPSTGSTASDTISLTTKPQLSTSGWFPSLFGHTYFIKADLLVYMVAYFVPTETGEYTFKLVNSDDAAVMYVGNPSAFPCGSIDTWPEPRKEDINVCDKISASTKLYMEKGLAYPVRLVWYNGGGDGQFNAQFIDPSGTTHTDWNGYVWQYDACTDCDYK", "glycan array binding signal (z-score)": 0.221}
{"binder": "Clone730PsrP (Streptococcus pneumoniae) (protein) MDHHHHHHHHHHASENLYFQGAMVVGSQTAAATEATAKKVEEDRKKPASDYVASVTNVNLQSYAKRRKRSVDSIEQLLASIKNAAVFSGNTIVNGAPAINASLNIAKSETKVYTGEGVDSVYRVPIYYKLKVTNDGSKLTFTYTVTYVNPKTNDLGNISSMRPGYSIYNSGTSTQTMLTLGSDLGKPSGVKNYITDKNGRQVLSYNTSTMTTQGSGYTWGNGAQMNGFFAKKGYGLTSSWTVPITGTDTSFTFTPYAARTDRIGINYFNGGGKVVESSTT", "glycan array binding signal (z-score)": -0.459}
{"binder": "LlpA (Burkholderia cenocepacia) (protein) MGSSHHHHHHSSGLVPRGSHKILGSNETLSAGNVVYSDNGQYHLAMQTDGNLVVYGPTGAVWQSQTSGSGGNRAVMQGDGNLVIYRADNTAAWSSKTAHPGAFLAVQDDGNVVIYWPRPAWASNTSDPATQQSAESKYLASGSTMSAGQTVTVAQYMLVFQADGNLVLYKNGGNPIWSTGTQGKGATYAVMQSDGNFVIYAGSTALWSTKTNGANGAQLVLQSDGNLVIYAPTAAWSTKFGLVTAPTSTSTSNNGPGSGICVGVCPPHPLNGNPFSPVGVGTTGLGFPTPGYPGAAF", "glycan array binding signal (z-score)": 0.692}
